- Tgt: Cytochrome P450 3A4 (Homo sapiens)
- Sequence (P08684 whole entry): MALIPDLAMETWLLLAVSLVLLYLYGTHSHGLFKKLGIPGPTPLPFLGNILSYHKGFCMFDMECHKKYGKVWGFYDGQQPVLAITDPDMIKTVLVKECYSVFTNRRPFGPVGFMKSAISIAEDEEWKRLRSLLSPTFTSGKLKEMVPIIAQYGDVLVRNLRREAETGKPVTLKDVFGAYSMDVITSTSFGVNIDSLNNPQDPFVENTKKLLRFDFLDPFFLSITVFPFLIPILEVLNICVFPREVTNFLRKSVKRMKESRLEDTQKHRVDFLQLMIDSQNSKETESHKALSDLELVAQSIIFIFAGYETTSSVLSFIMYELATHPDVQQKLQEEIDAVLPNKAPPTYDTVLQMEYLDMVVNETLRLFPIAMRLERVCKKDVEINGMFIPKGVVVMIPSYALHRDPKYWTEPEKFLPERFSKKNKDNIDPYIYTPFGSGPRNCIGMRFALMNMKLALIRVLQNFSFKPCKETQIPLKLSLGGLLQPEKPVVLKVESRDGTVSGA
Observable: IC50

# get_value(readout='IC50', item= O=C(O)c1cccc(-c2ccc(/C=N/NC(=O)C3COc4ccccc4O3)o2)c1 (stereo unspecified) ) > 50 µM

###

- Tgt: Cytochrome P450 2C19 (Homo sapiens, UniProt P33261)
- Sequence (P33261 whole entry): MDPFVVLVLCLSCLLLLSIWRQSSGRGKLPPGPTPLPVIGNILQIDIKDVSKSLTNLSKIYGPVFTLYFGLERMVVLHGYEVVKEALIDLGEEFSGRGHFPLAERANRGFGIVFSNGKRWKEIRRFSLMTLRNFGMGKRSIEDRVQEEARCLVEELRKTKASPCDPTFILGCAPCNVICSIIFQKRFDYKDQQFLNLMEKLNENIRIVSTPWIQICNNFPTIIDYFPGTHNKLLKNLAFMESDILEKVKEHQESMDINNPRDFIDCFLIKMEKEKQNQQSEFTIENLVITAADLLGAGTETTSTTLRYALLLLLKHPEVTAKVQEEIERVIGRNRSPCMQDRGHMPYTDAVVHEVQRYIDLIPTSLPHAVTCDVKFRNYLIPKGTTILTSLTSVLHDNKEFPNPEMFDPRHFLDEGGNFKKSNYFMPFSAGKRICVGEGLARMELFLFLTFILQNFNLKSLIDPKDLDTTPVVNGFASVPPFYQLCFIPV
Observable: IC50 (nM)
# output: bare number, implied unit nM

| Compound | IC50, nM |
| --- | --- |
| CCc1ccc(CC(=O)NCC2COc3ccccc3O2)cc1 (stereo not drawn) | 461 |

Please turn your attention to the following entry.
Can you look up the measured IC50 of O=C(Cc1ccc(-c2ccccc2)cc1)NCC1COc2ccccc2O1 (stereo not drawn) for me? 228

###

# EC50 listing for each entry below
- Test system: NCI-H460
- Assay details: Cytotoxicity against human NCI-H460 cells expressing median levels of AIMP2-DX2 assessed as reduction in cell viability incubated for 96 hrs
- Format: functional, cell-based
- Conditions used: NCI-H460, 96 h
Give your result in nM as a bare value.

Worked set:
| Compound | Tgt | Readout number |
| --- | --- | --- |
| Cc1cc2occ(CC(=O)NCC3COc4ccccc4O3)c2cc1C (stereo not given) | NCI-H460 | 370 |
| CCc1ccc(CC(=O)NCC2COc3ccccc3O2)cc1 (stereo not given) | NCI-H460 | 204 |
| O=C(O)c1cccc(-c2ccc(/C=N/NC(=O)C3COc4ccccc4O3)o2)c1 (stereo not given) | NCI-H460 | 2980 |
| Cc1cc(O)ccc1CC(=O)NCC1COc2ccccc2O1 (stereo not given) | NCI-H460 | 458 |

Quick one: EC50 for O=C(Cc1ccc(-c2ccccc2)cc1)NCC1COc2ccccc2O1 (stereo not given) ? 150

###

# collection of IC50 values tested on UniProtKB P11712
# Sequence (P11712 whole entry): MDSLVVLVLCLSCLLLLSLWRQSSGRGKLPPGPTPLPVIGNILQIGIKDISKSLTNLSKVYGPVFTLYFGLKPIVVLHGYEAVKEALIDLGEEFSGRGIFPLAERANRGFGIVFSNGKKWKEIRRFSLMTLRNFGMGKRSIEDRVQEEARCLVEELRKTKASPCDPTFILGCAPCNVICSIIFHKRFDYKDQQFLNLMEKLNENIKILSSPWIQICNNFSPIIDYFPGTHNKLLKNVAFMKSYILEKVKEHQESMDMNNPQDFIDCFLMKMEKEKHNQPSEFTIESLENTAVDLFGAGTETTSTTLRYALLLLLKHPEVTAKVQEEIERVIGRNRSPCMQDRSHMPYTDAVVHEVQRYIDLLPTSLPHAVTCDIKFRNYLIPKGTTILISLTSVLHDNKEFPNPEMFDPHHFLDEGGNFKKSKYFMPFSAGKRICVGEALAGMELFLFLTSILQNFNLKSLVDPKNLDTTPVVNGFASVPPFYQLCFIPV
Give the value, in units of µM, as a plain number.

| Compound | Tgt | Observable | U | Readout number |
| --- | --- | --- | --- | --- |
| O=C(O)c1cccc(-c2ccc(/C=N/NC(=O)C3COc4ccccc4O3)o2)c1 (configuration not stated) | UniProtKB P11712 | IC50 | µM | 49.5 |

// next entry
Return reported IC50; argument: O=C(Cc1ccc(-c2ccccc2)cc1)NCC1COc2ccccc2O1 (configuration not stated) 0.559

###

Reported remaining at 2 h values are given for each entry in this list.
- Assay details: Plasma stability in human assessed as compound remaining measured after 2 hrs
- Type: ADME, cell-free
- Conditions used: read-out: Stability
Write down the numeric answer in % and omit the unit.

Solved cases below.
| Compound | U | remaining at 2 h |
| --- | --- | --- |
| O=C(Cc1ccc(-c2ccccc2)cc1)NCC1COc2ccccc2O1 (stereo not drawn) | % | 98.7 |
| O=C(O)c1cccc(-c2ccc(/C=N/NC(=O)C3COc4ccccc4O3)o2)c1 (stereo not drawn) | % | 69.8 |

Moving on to another compound below.
# lookup: remaining at 2 h of CCc1ccc(CC(=O)NCC2COc3ccccc3O2)cc1 (stereo not drawn) 97

###

- Assay details: Metabolic stability in human assessed as half life
- Assay type: ADME
# key: entry, value: half-life
Could you give me the number in min? Just the number is fine.

| Compound | Readout number |
| --- | --- |
| O=C(O)c1cccc(-c2ccc(/C=N/NC(=O)C3COc4ccccc4O3)o2)c1 (stereo not drawn) | 49.1 |

# next compound below
Given the entry CCc1ccc(CC(=O)NCC2COc3ccccc3O2)cc1 (stereo not drawn) , report its measured half-life. 2.7

###

- Tgt: Aminoacyl tRNA synthase complex-interacting multifunctional protein 2 (Homo sapiens, UniProt Q13155)
- Sequence (Q13155 whole entry, looked up, one chain of several): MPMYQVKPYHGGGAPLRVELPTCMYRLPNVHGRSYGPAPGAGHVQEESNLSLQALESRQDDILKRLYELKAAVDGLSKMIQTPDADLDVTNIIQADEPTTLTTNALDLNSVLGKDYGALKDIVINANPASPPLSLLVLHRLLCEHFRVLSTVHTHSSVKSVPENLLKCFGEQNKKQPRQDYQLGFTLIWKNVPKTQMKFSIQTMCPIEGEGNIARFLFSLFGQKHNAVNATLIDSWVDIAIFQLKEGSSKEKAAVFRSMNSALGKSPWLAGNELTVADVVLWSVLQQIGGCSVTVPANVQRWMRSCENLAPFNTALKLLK
- Assay details: Inhibition of AIMP2-DX2 in human A549 cells by luciferase assay
- Format: cell-based
Observable: IC50
Answer with the figure and its unit, nothing else.

| Compound | IC50 |
| --- | --- |
| Cc1ccc2c(CC(=O)NCC3COc4ccccc4O3)coc2c1 (configuration not stated) | 5.68 µM |

# input for lookup
Requested read-out: IC50. Entry: O=C(O)c1cccc(-c2ccc(/C=N/NC(=O)C3COc4ccccc4O3)o2)c1 (configuration not stated) 7.38 µM
